Listed next: entries and their corresponding interaction score.
- TARGET SYSTEM: T1, O13
- T1 chain: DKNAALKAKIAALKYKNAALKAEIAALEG
- EXPERIMENTAL DETAILS: two-hybrid library CCNG1;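 further: natural log of median RNA to DNA barcode read ratio; higher means stronger binding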
METRIC: interaction score

BINDER	NUMERIC READOUT
DKNAALKAENAALEYKIAALKAKIAALKG [O10]	-1.79
DKNAALKAENAALEYEIAALEAEIAALEG [O1]	-1.26
DEIQQLEQEIQELEQKNQELEWKNQELKQ [4H56-bN]	-0.5
DKIAALKAEIAALEYENAALEAENAALEG [O11]	-1.9
DEIAALEAKIAALKYKNAALKAKNAALKG [O12]	-2.04
DKNQQLEQKIQELKQKIQELEWENQELEQ [4H3427-bN]	-2.44
DKNAALKAKIAALKYKNAALKAEIAALEG [O13]	-2.48
